Recorded values, source DBAASP.

Values of MIC reported for Staphylococcus aureus RF122 appear below.

Substance Smiles	Target Desc	MIC
CC[C@H](C)[C@H](N)C(=O)N[C@@H](CCCN=C(N)N)C(=O)N[C@@H](CCCN=C(N)N)C(=O)N[C@@H](CCC(N)=O)C(=O)NCC(=O)N[C@@H](CC(C)C)C(=O)N1CCC[C@H]1C(=O)N[C@@H](CCC(=O)O)C(=O)O	Staphylococcus aureus RF122	≥ 1250 µM
CC(C)C[C@H](NC(=O)CNC(=O)[C@H](CCC(N)=O)NC(=O)[C@H](Cc1cnc[nH]1)NC(=O)[C@@H](N)CCCCN)C(=O)N1CCC[C@H]1C(=O)N[C@@H](CCC(N)=O)C(=O)N[C@@H](CCC(=O)O)C(=O)O	Staphylococcus aureus RF122	≥ 1250 µM
CC(C)C[C@H](NC(=O)[C@H](CC(N)=O)NC(=O)[C@H](CCC(=O)O)NC(=O)[C@H](CC(N)=O)NC(=O)[C@H](CC(C)C)NC(=O)[C@@H](N)C(C)C)C(=O)N[C@@H](CCCN=C(N)N)C(=O)N[C@@H](CCCN=C(N)N)C(=O)O	Staphylococcus aureus RF122	≥ 1250 µM
CC[C@H](C)[C@H](N)C(=O)N[C@@H](Cc1cnc[nH]1)C(=O)N[C@@H](Cc1cnc[nH]1)C(=O)N[C@@H](CCC(N)=O)C(=O)NCC(=O)N[C@@H](CC(C)C)C(=O)N1CCC[C@H]1C(=O)N[C@@H](CCC(N)=O)C(=O)N[C@@H](CCC(=O)O)C(=O)O	Staphylococcus aureus RF122	≥ 2500 µM
CC(C)C[C@H](NC(=O)[C@H](C)NC(=O)[C@H](CC(N)=O)NC(=O)[C@H](CCC(=O)O)NC(=O)[C@H](CC(N)=O)NC(=O)[C@H](CC(C)C)NC(=O)[C@@H](N)C(C)C)C(=O)N[C@@H](CCCN=C(N)N)C(=O)O	Staphylococcus aureus RF122	≥ 1250 µM
CC(C)C[C@H](NC(=O)[C@H](CC(C)C)NC(=O)[C@H](CC(N)=O)NC(=O)[C@H](CCC(=O)O)NC(=O)[C@H](CC(N)=O)NC(=O)[C@H](CC(C)C)NC(=O)[C@@H](N)C(C)C)C(=O)O	Staphylococcus aureus RF122	≥ 1250 µM
